target: mGluR4 (Homo sapiens); assay: Fluorescent Imaging Plate Reader (FLIPR) assay for mGluR4 potentiators; conditions: inflection point of curve; potentiation of EC10 concentration of L-AP4 (30 nM); read-out: mGluR4 FLIPR Potency
Sequence (Q14833 33-912): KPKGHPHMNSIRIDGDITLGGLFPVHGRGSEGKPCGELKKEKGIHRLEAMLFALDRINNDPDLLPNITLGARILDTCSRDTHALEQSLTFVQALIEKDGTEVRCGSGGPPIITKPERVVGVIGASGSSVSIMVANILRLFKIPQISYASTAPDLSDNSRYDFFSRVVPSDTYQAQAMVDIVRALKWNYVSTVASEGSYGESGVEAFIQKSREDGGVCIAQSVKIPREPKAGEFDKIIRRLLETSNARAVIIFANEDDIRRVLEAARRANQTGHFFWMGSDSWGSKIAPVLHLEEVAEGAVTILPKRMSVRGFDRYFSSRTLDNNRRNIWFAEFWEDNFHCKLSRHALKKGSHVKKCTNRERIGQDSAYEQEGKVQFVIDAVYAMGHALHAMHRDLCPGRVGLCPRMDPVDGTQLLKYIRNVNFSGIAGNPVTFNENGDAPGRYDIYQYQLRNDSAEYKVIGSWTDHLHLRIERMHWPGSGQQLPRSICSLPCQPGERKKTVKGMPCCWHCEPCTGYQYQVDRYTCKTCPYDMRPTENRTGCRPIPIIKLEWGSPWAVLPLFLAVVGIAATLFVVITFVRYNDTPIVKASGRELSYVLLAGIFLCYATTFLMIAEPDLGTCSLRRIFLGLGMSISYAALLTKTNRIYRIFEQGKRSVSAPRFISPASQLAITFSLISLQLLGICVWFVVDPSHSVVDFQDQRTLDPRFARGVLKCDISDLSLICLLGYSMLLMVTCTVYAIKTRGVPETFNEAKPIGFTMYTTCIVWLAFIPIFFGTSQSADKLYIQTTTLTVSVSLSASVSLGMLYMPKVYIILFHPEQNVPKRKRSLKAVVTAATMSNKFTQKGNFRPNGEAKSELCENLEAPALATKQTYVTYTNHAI
Give measured pEC50 for each item. Keep answers brief.
One number for each entry, as −log10 of the molar value.

Parameters: items (list). Returns: pEC50 for each item.
1. O=C(Nc1ccc(S(=O)(=O)Nc2ccccc2Cc2ccccc2)cc1)c1ccccn1
2. COc1cc(NC(=O)c2ccccn2)ccc1S(=O)(=O)Nc1ccccc1
3. O=C(Nc1ccc(S(=O)(=O)Nc2ccccc2Br)cc1)c1ccccn1
4. O=C(Nc1ccc(S(=O)(=O)Nc2ccccc2Cl)cc1)c1ccccn1

6.32
5.40
6.87
6.79

Record request: pEC50 value, item Cc1ccc(NS(=O)(=O)c2ccc(NC(=O)c3ccccn3)cc2)cc1 5.87
